Assay: Cytotoxicity against human GLC82 cells after 48 hrs by MTT assay
Format: functional, cell-based
Conditions: GLC82, 48 h
Provide the reported pIC50 of each item.
Give bare numbers, as −log10 of the molar value.

Some solved entries appear below for comparison.
# smiles_repr, pIC50
rows = [
    ("COc1ccc2cc3[n+](cc2c1NCCCN(C)C)CCc1cc2c(cc1-3)OCO2", 4.54),
    ("COc1ccc2cc3[n+](c4c2c1N(CCCN1CCOCC1)C=C4)CCc1cc2c(cc1-3)OCO2", 4.52),
]

Please give pIC50 for each item listed below.
1. COc1ccc2cc3[n+](cc2c1NCCCN1CCOCC1)CCc1cc2c(cc1-3)OCO2
2. COc1ccc2cc3[n+](cc2c1NCCCCCCN)CCc1cc2c(cc1-3)OCO2

1. 4.07
2. 5.40
